assay method text: qHTS assay to identify small molecule antagonists of the farnesoid-X-receptor (FXR) signaling pathway - cell viability counter screen (AID 743221); further: nearly all actives have a fitted effect of over 50% in size
details: FXR-bla HEK293T viability, CellTiter-Glo luminescence, 16 h; series mostly up to 62.6 µM
Inconclusive results are not listed. Activity calls are given as the source filed them. The call rests on the fitted dose curve; in most records, active means well fitted cell-killing curve with a large enough effect in the repeat runs (not every such curve was filed as active); inconclusive means weak or mixed curves, or effect the other way; inactive means no such curve, though single readings can be large or run the other way.
Give your call using only these classes: yes (1) for active, no (0) for inactive

Recorded call for O=[N+]([O-])c1ccc(Cl)c(Cl)c1Cl ? no (0)

Do the same for C#CCC1=C(C)C(OC(=O)C2C(C=C(C)C)C2(C)C)CC1=O (stereo not drawn) please no (0)

Another compound to check: Cc1ccc(C)c2ccccc12 no (0)

Item: CC(O)C(=O)[O][Hg][c]1ccccc1 (stereo not drawn) yes (1)

What do you get for C#CCO ? no (0)

CC(Cc1ccc2c(c1)OCO2)NO (stereo not drawn) ? no (0)

Let us now turn to O=C(NC(=O)c1c(F)cccc1F)Nc1ccc(Oc2ccc(C(F)(F)F)cc2Cl)cc1F no (0)

// repeat for Nc1c(Cl)c(Cl)c(Cl)c(Cl)c1Cl and report no (0)

Now this one: Brc1ccc(Oc2ccc(Br)cc2Br)c(Br)c1 no (0)

Entry CCC(C)Nc1c([N+](=O)[O-])cc(C(C)(C)C)cc1[N+](=O)[O-] (stereo not drawn) please no (0)

Cool, now CN1[C@@H]2CC[C@H]1CC(O)C2 (stereo partly drawn) no (0)

Try this compound too: BrCC(Br)(Br)Br no (0)

Check COC(=O)C(C)N(C(=O)c1ccco1)c1c(C)cccc1C (stereo not drawn) too. no (0)

###

measured target: Acetylcholinesterase (Homo sapiens)
assay method text: Acetylcholinesterase (AChE) small molecule antagonists: colormetric cell-based qHTS assay (AID 1347395); further: nearly all actives have a fitted effect of over 30% in size
details: SH-SY5Y cells AChE activity, colorimetric (Ellman); series mostly up to 115 µM
Records with an inconclusive call do not appear. Activity calls are given as the source filed them. Calls follow the shape of the full dose curve.
Returns: one label drawn from active, inactive

Please share the test call associated with CC(C)C(Nc1ccc(C(F)(F)F)cc1Cl)C(=O)OC(C#N)c1cccc(Oc2ccccc2)c1 (stereo unspecified) . inactive

Try this compound next: N#Cc1sc2c(=O)c3ccccc3c(=O)c=2sc1C#N active

Please do the same for FC(F)C(F)(F)OCC(Cn1cncn1)c1ccc(Cl)cc1Cl (stereo unspecified) as well. inactive

Proceed to BrCCCBr inactive

Same question for C[C@@H]1CC2=CC(=O)CC[C@@H]2[C@H]2CC[C@@]3(C)[C@@H](CC[C@]3(C)O)[C@@H]21 please. inactive

Note, next up: N#CSCc1ccccc1 inactive

###

assay method text: qHTS assay to identify small molecule antagonists of the farnesoid-X-receptor (FXR) signaling pathway - cell viability counter screen (AID 743221); further: nearly all actives have a fitted effect of over 50% in size
details: FXR-bla HEK293T viability, CellTiter-Glo luminescence, 16 h; series mostly up to 62.6 µM
Results filed as inconclusive are left out. Activity calls are given as the source filed them. Calls follow the shape of the dose curve; as a rule, active = well fitted cell-killing curve with a large enough effect in the repeat runs (not every such curve was filed as active); inconclusive = weak or mixed curves, or effect the other way; inactive = no such curve, though single readings can be large or run the other way.
The reply should name one outcome from t for active, f for inactive

Hello, I am checking results. What call was entered for Nc1nc(N)nc(Cl)n1 ? f

Query CC(=O)[O-].CC(=O)[O-].O.O.[Zn+2] next f

Do the same for CC(=O)[O-].CC(=O)[O-].O.O.O.[Pb+2] please f

Follow-up item: CC(=O)[O-].CC(=O)[O-].[Co+2] f

C[C@]12C/C(=C/O)C(=O)C[C@@H]1CC[C@@H]1[C@@H]2CC[C@@]2(C)[C@H]1CC[C@]2(C)O , same question. f

Same question for N#CC(C#N)=NNc1cccc(Cl)c1 please. t
